This collection of values is drawn from patent US5395947A.

Assignment: determine reported Number of dead mice, 4th day for the given compounds.
- Tested on: ICR mice
- Method Summary: Acute toxicity test
- Type: in vivo
- Condition Set: male, 55.0 mg/kg i.p.

Field Number of dead mice, 4th day (system: ICR mice) for entry CC(C)C1O[C@H](CN)[C@@H](CN)O1.O=C1C[O][Pt][O]1 [Example 7] = 1/5

Field Number of dead mice, 4th day (system: ICR mice) for entry NC[C@H]1OC2(CCCC2)O[C@@H]1CN.O=C1C[O][Pt][O]1 [Example 3] = 1/2

Field Number of dead mice, 4th day (system: ICR mice) for entry CC1(C)O[C@H](CN)[C@@H](CN)O1.O=C1C[O][Pt][O]1 [Example 2] = 1/2

Field Number of dead mice, 4th day (system: ICR mice) for entry CCC1O[C@H](CN)[C@@H](CN)O1.O=C1C[O][Pt][O]1 [Example 6] = 1/2
